Tested on: LG0703-F948-PDC complex spheroid viability;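 note: spheroids exposed to agents for 7 days; 100% = DMSO vehicle wells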
test: Anticancer human tumor LG0703-F948-PDC patient-derived lung adenocarcinoma cell line growth inhibition [RAS]
protocol-conditions: second compound 0.00949 µM; first compound 0.01 µM; stronger effect = lower value
Please provide measured viability, T/C for the entries that follow.

Request: Recall the recorded viability, T/C for C=CC(=O)Nc1cc(Nc2nccc(-c3cn(C)c4ccccc34)n2)c(OC)cc1N(C)CCN(C)C + CCn1c(-c2cc(N3CCN(C)CC3)cnc2C(C)OC)c2c3cc(ccc31)-c1csc(n1)CC(NC(=O)C1CC1C)C(=O)N1CCCC(N1)C(=O)OCC(C)(C)C2 with LG0703-F948-PDC complex spheroid viability and state it.
Response: 14.2%

Request: # repeat for Nc1ccn(C2OC(CO)C(O)C2(F)F)c(=O)n1 (centres undefined) + CCn1c(-c2cc(N3CCN(C)CC3)cnc2C(C)OC)c2c3cc(ccc31)-c1csc(n1)CC(NC(=O)C1CC1C)C(=O)N1CCCC(N1)C(=O)OCC(C)(C)C2
Response: 18.3%

Request: # repeat for O=C(c1ccc(F)c(F)c1Nc1ccc(I)cc1F)N1CC(O)([C@@H]2CCCCN2)C1 + CCn1c(-c2cc(N3CCN(C)CC3)cnc2C(C)OC)c2c3cc(ccc31)-c1csc(n1)CC(NC(=O)C1CC1C)C(=O)N1CCCC(N1)C(=O)OCC(C)(C)C2
Response: 15.4%

Request: # repeat for O=C(c1ccc(F)c(F)c1Nc1ccc(I)cc1F)N1CC(O)([C@@H]2CCCCN2)C1 + CCn1c(-c2cccnc2C(C)OC)c2c3cc(ccc31)N1CCOC(CC(NC(=O)C(C(C)C)N(C)C(=O)C3(F)CCN(C(=O)C#CC(C)(C)N(C)C)CC3)C(=O)N3CCCC(N3)C(=O)OCC(C)(C)C2)C1
Response: 88.3%
